experimental target: Gβ1γ2 (Homo sapiens, UniProt P62873)
Sequence (P62873 whole entry): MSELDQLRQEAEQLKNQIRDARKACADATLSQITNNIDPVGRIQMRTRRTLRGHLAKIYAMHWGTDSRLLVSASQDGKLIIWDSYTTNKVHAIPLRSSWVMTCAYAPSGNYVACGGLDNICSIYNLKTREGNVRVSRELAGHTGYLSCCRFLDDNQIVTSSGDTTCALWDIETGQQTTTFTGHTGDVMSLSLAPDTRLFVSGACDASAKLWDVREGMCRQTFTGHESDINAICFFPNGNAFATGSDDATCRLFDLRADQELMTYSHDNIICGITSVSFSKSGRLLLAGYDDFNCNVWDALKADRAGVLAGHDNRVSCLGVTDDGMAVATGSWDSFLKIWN
Sequence (P59768 2-68 partner limits assumed): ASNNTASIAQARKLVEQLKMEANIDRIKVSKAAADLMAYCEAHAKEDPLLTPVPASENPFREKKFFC
assay comment: Surface plasmon resonance direct binding to immobilized biotinylated Gβ1γ2
experimental conditions: Kd (M), Kinetic titration
result type: Kd (M)
Kindly answer with a numeric value in M, unit omitted.

Request: Which measured Kd belongs to O=C(O)C1CCCCC1c1c2ccc(=O)c(O)c-2oc2c(O)c(O)ccc12 (stereo not shown) , tested on Gβ1γ2 (Homo sapiens, UniProt P62873)?
Response: 1.2e-07

###

experimental target: Gβ1γ2 (Homo sapiens, UniProt P62873)
assay comment: Surface plasmon resonance direct binding to immobilized biotinylated Gβ1γ2
experimental conditions: Kd (μM), kinetic titration; average of N experiments
# Kd listing for each entry below
// return numeric value only (unit: µM, not printed)

# chemical structure, Kd [µM]
measured = [
    ("O=C1OC2(c3ccccc31)c1ccc(O)c(O)c1Oc1c2ccc(O)c1O", 0.407),
]

Could you now consider this next compound?
Request: Lab request: please report Kd under test system Gβ1γ2 (Homo sapiens, UniProt P62873) for `Nc1cccc(Nc2cc(S(=O)(=O)O)c(N)c3c2C(=O)c2ccccc2C3=O)c1`
Response: 2
